I'd appreciate it if you could supply MIC values for the items below.
system: E. coli Tol C; assay: Antibacterial assay, microtitration MIC; type: cell-based; settings: Escherichia coli, read-out: Minimum Inhibitory Concentrations E. coli Tol C
Where a name gives a salt, the structure may show the parent alone.
Report the figure along with its unit, number first.

// field: MIC; key: N[C@@H]1[C@H]2CN(c3cc4c(cc3F)c(=O)n(O)c(=O)n4C3CC3)C[C@@H]12 [drawing 284, reference compound] ; value = 0.25 mg/L

// field: MIC; key: Cl.Nn1c(=O)c2cc(F)c(N3CCC(CO)C3)c(Cl)c2n(C2CC2)c1=O (stereo not shown) ; value = 0.13 mg/L

// field: MIC; key: O=c1c2cc(F)c(N3C[C@@H]4CCCN[C@@H]4C3)cc2n(C2CC2)c(=O)n1O [reference compound] ; value = 1 mg/L

// field: MIC; key: N[C@H]1CCN(c2c(F)c(F)c3c(=O)n(N)c(=O)n(C4CC4)c3c2F)C1 [Compound 9, hydrochloride] ; value = 0.5 mg/L

// field: MIC; key: NCC1CCN(c2c(F)cc3c(=O)n(N)c(=O)n(C4CC4)c3c2Cl)C1 (stereo not shown) [Compound 1, hydrochloride] ; value = 0.25 mg/L

// field: MIC; key: Nc1c(F)c(N2CC[C@H](N)C2)c(F)c2c1c(=O)n(N)c(=O)n2C1CC1 [Compound 11, hydrochloride] ; value = 0.25 mg/L

Others:
// field: MIC; key: `Cl.N[C@@H]1CN(c2c(F)cc3c(=O)n(N)c(=O)n(C4CC4)c3c2Cl)CC12CC2` ; value = 0.5 mg/L

====

I'd appreciate it if you could supply melting point values for the items below.

Some solved entries appear below for comparison.
// field: melting point; key: Cc1c(N2CCC(C)(CN)C2)c(F)cc2c(=O)n(N)c(=O)n(C3CC3)c12.Cl (stereo not shown) ; value = 210 °C

// field: melting point; key: Cl.N[C@@H]1CN(c2c(F)cc3c(=O)n(N)c(=O)n(C4CC4)c3c2Cl)C[C@H]1C(F)(F)F (relative stereo) ; value = 181 to 183 °C

// field: melting point; key: Cc1c(N2CCC(C)(N)C2)c(F)cc2c(=O)n(N)c(=O)n(C3CC3)c12.Cl (stereo not shown) ; value = 237 to 240 °C

Others:
// field: melting point; key: Nn1c(=O)c2cc(F)c(N3CCC4(CCNC4)C3)c(Cl)c2n(C2CC2)c1=O (stereo not shown) [Compound 62] ; value = 147 to 149 °C

====

molecular target: E. coli gyrase (Escherichia coli, UniProt P0AES4+P0AES6); construct: purchased Lucent, Ltd., Leicester, UK; assay: DNA gyrase supercoiling inhibition assay; assay type: biochemical
I'd appreciate it if you could supply IC50 values for the items below.
Numbers only, in nM.

The reported E. coli gyrase (Escherichia coli, UniProt P0AES4+P0AES6) IC50 of Cl.N[C@@H]1CN(c2c(F)cc3c(=O)n(N)c(=O)n(C4CC4)c3c2Cl)CC12CC2 [Compound 14, hydrochloride] is 2400

Then this compound:
The reported E. coli gyrase (Escherichia coli, UniProt P0AES4+P0AES6) IC50 of Cl.Nn1c(=O)c2cc(F)c(N3CCC(CO)C3)c(Cl)c2n(C2CC2)c1=O (centres unmarked) [Compound 12, hydrochloride] is 2100
